Where these numbers come from: patent US20120108492A1

Tested on: anti-CR2 SCR1-2 mAb 629
Experiment: MBP-CR2 SCR1-2-629 mAb ELISA
Type: binding
Conditions: mutant MBP-CR2 SCR1-2 relative to wild-type; plate-bound 629 mAb
Measured % 629 mAb Bindng, listed per entry for reference.

| molecule | % 629 mAb Bindng |
| --- | --- |
| R36A: single-site mutant of recombinant MBP-CR2 SCR1-2 (protein, left off: large carriers; small tags and cut ends) ISCGSPPPILNGRISYYSTPIAVGTVIRYSCSGTFALIGEKSLLCITKDKVDGTWDKPAPKCEYFNKYSSCPEPIVPGGYKIRGSTPYRHGDSVTFACKTNFSMNGNKSVWCQANNMWGPTRLPTCVSVFPLE | 113.9% |

Q) Write down % 629 mAb Bindng measured for item Y68A: single-site mutant of recombinant MBP-CR2 SCR1-2 (protein, left off: large carriers; small tags and cut ends) ISCGSPPPILNGRISYYSTPIAVGTVIRYSCSGTFRLIGEKSLLCITKDKVDGTWDKPAPKCEYFNKASSCPEPIVPGGYKIRGSTPYRHGDSVTFACKTNFSMNGNKSVWCQANNMWGPTRLPTCVSVFPLE
A) 102.3%

Q) State, in one line, measured % 629 mAb Bindng of R83A: single-site mutant of recombinant MBP-CR2 SCR1-2 (protein, left off: large carriers; small tags and cut ends) ISCGSPPPILNGRISYYSTPIAVGTVIRYSCSGTFRLIGEKSLLCITKDKVDGTWDKPAPKCEYFNKYSSCPEPIVPGGYKIAGSTPYRHGDSVTFACKTNFSMNGNKSVWCQANNMWGPTRLPTCVSVFPLE
A) 94.4%
